# TEST_PROTOCOL: chemical genetic growth profiling, strain panel (AID 1159580);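 note: tested at 20 µM; growth read once vehicle control cultures reached saturation at 30 °C; 1 = growth at the plate median or of vehicle wells; lower values mean less growth of the strain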
# EXPERIMENTAL_CONDITIONS: S. cerevisiae deletion strains, growth OD, locus YER133W, strain GLC7
The whole screen tested about 5,500 compounds, of which about 2,000 (36%) were called active. About 18% were inconclusive and are not listed. Cut-off read from the data, not from the text of the source: active = normalized growth mostly below about 0.91 (no sharp cut-off); inconclusive = no clear call, values can overlap the other calls; inactive = mostly above about 0.92. Some of the results follow.
Respond only with the outcome that fits, drawn from 1 = active, 0 = inactive

COc1cc(C(=O)Oc2c(Cl)cc(Cl)cc2C=Nc2cccc(C(F)(F)F)c2)cc(OC)c1OC: 1

Q) Kindly provide the recorded test outcome for the following molecule: O=C1/C(=C/c2c(F)cccc2Cl)Cc2ccccc21
A) 0

Q) Kindly provide the recorded test outcome for the following molecule: O=C(Nc1ccc(Cl)cc1Cl)c1cnccc1C(F)(F)F
A) 0
